molecular target: T1, CTLA4-Fc fusion protein (human, biotinylated where used as CTLA4-Fc-Biotin (Examples 5.1-5.3)); experiment: ELISA, CTLA4-Fc coated, 10 ng VHH/well
T1 construct: expressed in HEK293 cells; also called human CTLA4-Fc protein; CTLA4-Fc antigen protein
T1 sequence (chain, as listed by the source limits assumed): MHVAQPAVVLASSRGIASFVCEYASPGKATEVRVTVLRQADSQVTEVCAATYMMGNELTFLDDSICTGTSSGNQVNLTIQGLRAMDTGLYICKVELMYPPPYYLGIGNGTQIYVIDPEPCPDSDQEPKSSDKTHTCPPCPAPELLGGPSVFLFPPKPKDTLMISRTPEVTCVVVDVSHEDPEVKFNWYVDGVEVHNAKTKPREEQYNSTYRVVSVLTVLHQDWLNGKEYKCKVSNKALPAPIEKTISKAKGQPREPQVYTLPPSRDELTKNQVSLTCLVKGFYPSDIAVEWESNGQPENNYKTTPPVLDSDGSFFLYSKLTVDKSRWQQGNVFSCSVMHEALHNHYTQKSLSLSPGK
MEASUREMENT_LABEL: OD (against CTLA4) (OD405)
Give just the number in OD405; leave the unit off.

[[record]]
binder = "CTLA4 heavy chain single domain antibody No. C27 (VHH, Camel VHH expressed in E. coli (PET32b), nickel-purified) VHH: QVQLQESGGGSVQAGGSLRLSCAASGYIYSAYCMGWFRQAPGKERVGVAAISIGGGSTYYADSVKGRFTISQDNAKNTLYLQMNSLKPEDTAMYYCAADVIPTETCLGGSWSGPFGYWGQGTQVTVSS"
value_measured = 1.31


Return OD (against CTLA4) for the following binder: CTLA4 heavy chain single domain antibody No. 116 (VHH, Camel VHH expressed in E. coli (PET32b), nickel-purified) VHH: QVQLQESGGGLVQPGGSLRLSCEASGFTFSSYTMTWLRQAPGKGLEWVSTINSGGSTSYADSVKGRFAISRDNAKNTLYLQLNSLEIEDTGMYYCQGGLTRGQGTQVTVSS
0.234

Given the binder CTLA4 heavy chain single domain antibody No. C29 (VHH, Camel VHH expressed in E. coli (PET32b), nickel-purified) VHH: QVQLQESGGGSVQAGGSLRLSCAVSGYTYSGYCMGWFRQAPGKEREGVAAISRGDGSPGYADSVKGRFTISQDNAKNTLYLQMNSLKPEDTAMYYCAADVIPTETCSYGSWSGPNGYWGQGTQVTVSS , write its reported OD (against CTLA4).
1.51

Tell me its OD (against CTLA4) given CTLA4 heavy chain single domain antibody No. C38 (VHH, Camel VHH expressed in E. coli (PET32b), nickel-purified) VHH: QVQLQESGGGSVQAGGSLRLSCAASRYTASSNCMAWFRQAPGKEREGVATIYNGGGSTAYADSVKGRFTISQDNAKNTVYLQMNSLKPEDTAMYYCGAGSPRFCASATMTGGHHLFGYWGQGTQVTVSS as the entry.
1.02
